- assay_name: Displacement of […]FMZ from Wistar rat cerebellum GABAA receptor by competitive radioligand assay
- Type: tissue-based
reported_property: pKi
Scale explanation: pKi corresponds to minus log10 of a concentration expressed in moles per litre.

Solved cases (9 shown):
Q: Determine its reported pKi: CC(C)OC(=O)c1ncn2c1CN(C)C(=O)c1c(F)cccc1-2
A: 9.38

Q: Determine its reported pKi: CN1Cc2c(C(=O)OC(C)(C)C)ncn2-c2ccnc(F)c2C1=O
A: 8.41

Q: Determine its reported pKi: CCOC(=O)c1ncn2c1[C@@H]1CCCN1C(=O)c1cc(F)ccc1-2
A: 8.64

Q: Determine its reported pKi: CCOC(=O)c1ncn2c1CN(CC)C(=O)c1cc(F)ccc1-2
A: 7.97

Q: Determine its reported pKi: CN1Cc2c(C(=O)OCCF)ncn2-c2ccc(F)cc2C1=O
A: 8.40

Q: Determine its reported pKi: CCOC(=O)c1ncn2c1CN(Cc1ccccc1)C(=O)c1cc(F)ccc1-2
A: 8.54

Q: Determine its reported pKi: CCOC(=O)c1ncn2c1CN(C)C(=O)c1c(F)cccc1-2
A: 8.26

Q: Determine its reported pKi: CN1Cc2c(C(=O)OC(C)(C)C)ncn2-c2ccc(OCCF)cc2C1=O
A: 9.28

Q: Determine its reported pKi: O=C(OCCF)c1ncn2c1[C@@H]1CCCN1C(=O)c1c(Br)cccc1-2
A: 8.03

Please find the next compound below.
Q: Determine its reported pKi: CCOC(=O)c1ncn2c1CN(C)C(=O)c1cc(OCCF)ccc1-2
A: 8.64

----------
// reported logD for each item listed
- assay_name: Lipophilicity, log D of the compound in n-octanol at pH 7.4 by shake flask method
- Type: physicochemical
# answer = number (no unit)

Q: Determine its reported logD: CCOC(=O)c1ncn2c1CN(CC)C(=O)c1cc(F)ccc1-2
A: 1.65

Q: Determine its reported logD: CN1Cc2c(C(=O)OC(C)(C)C)ncn2-c2ccc(OCCF)cc2C1=O
A: 1.17

Q: Determine its reported logD: CCOC(=O)c1ncn2c1CN(C)C(=O)c1c(F)cccc1-2
A: 1.25

Q: Determine its reported logD: CCOC(=O)c1ncn2c1CN(C)C(=O)c1cc(OCCF)ccc1-2
A: 1.62

Q: Determine its reported logD: CCOC(=O)c1ncn2c1CN(C)C(=O)c1cc(F)ccc1-2
A: 1.58

Q: Determine its reported logD: CCOC(=O)c1ncn2c1CN(CCF)C(=O)c1cc(F)ccc1-2
A: 1.54

Others:
Q: Determine its reported logD: CCOC(=O)c1ncn2c1CN(Cc1ccccc1)C(=O)c1cc(F)ccc1-2
A: 1.44

Q: Determine its reported logD: CN1Cc2c(C(=O)OCCF)ncn2-c2ccc(F)cc2C1=O
A: 1.12

Q: Determine its reported logD: CCOC(=O)c1ncn2c1[C@@H]1CCCN1C(=O)c1cc(F)ccc1-2
A: 1.85

Q: Determine its reported logD: CN1Cc2c(C(=O)OCCCF)ncn2-c2ccc(F)cc2C1=O
A: 0.68

Q: Determine its reported logD: CN1Cc2c(C(=O)OC(C)(C)C)ncn2-c2cccc(F)c2C1=O
A: 0.69

----------
- assay_name: Displacement of […]FMZ from Wistar rat cerebellum GABAA receptor by competitive radioligand assay
- Format: tissue-based
reported_property: Ki (nM)
The response must be a number in nM with no trailing unit.

Solved cases (2 shown):
Q: Determine its reported Ki: CN1Cc2c(C(=O)OC(C)(C)C)ncn2-c2ccc(F)cc2C1=O
A: 1.9

Q: Determine its reported Ki: CN1Cc2c(C(=O)OC(C)(C)C)ncn2-c2cccc(OCCF)c2C1=O
A: 1.1

Please find the next molecule below.
Q: Determine its reported Ki: O=C(OCCCF)c1ncn2c1[C@@H]1CCCN1C(=O)c1c(Br)cccc1-2
A: 3.2
